- Target of assay: hM2 muscarinic receptor (Homo sapiens (Human))
- Sequence (P08172 whole entry): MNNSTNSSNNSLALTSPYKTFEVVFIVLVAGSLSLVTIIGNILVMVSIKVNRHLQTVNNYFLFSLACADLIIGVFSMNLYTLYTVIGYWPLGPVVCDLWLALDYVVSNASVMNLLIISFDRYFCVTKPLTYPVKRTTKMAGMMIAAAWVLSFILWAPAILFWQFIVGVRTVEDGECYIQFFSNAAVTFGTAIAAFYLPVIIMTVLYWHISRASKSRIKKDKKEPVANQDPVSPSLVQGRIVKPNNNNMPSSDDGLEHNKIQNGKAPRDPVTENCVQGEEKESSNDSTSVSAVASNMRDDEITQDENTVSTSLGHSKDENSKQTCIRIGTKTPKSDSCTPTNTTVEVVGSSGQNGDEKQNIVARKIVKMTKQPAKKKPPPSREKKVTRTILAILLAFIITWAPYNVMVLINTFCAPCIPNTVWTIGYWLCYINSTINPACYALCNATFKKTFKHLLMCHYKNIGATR
- Experiment summary: Off-target binding, M2
- Condition notes: read-out: Ki at M2

Molecule: CNC(=O)C12CC1C(n1cnc3c(NCc4cccc(Cl)c4)nc(C#Cc4ccc(F)c(F)c4)nc31)C(O)C2O (single isomer, unassigned) [MRS5698]
Ki [µM]: 5.4

* * *

- Test system: chronic constriction injury model of neuropathic pain
- Experiment summary: CCI model of neuropathic pain, reversal of mechano-allodynia
- Format: in vivo, mice
- Condition notes: 3 μmol/kg p.o., mice, ipsilateral hind paw
The reader will find reported Time of peak protection values listed item by item below.

Mol smiles: CNC(=O)[C@@]12C[C@@H]1[C@@H](n1cnc3c(NC)nc(C#Cc4ncccn4)nc31)[C@H](O)[C@@H]2O
Target of assay: chronic constriction injury model of neuropathic pain
Time of peak protection: 0.5 to 1 h
--
Mol smiles: CNC(=O)[C@@]12C[C@@H]1[C@@H](n1cnc3c(NC)nc(C#Cc4cccc(OC)c4)nc31)[C@H](O)[C@@H]2O
Target of assay: chronic constriction injury model of neuropathic pain
Time of peak protection: 0.5 to 2 h
--
Mol smiles: CNC(=O)[C@@]12C[C@@H]1[C@@H](n1cnc3c(NC)nc(C#Cc4cccnc4)nc31)[C@H](O)[C@@H]2O
Target of assay: chronic constriction injury model of neuropathic pain
Time of peak protection: 0.5 to 2 h
